Measured AC50 values are reported for all entries that follow.
# TARGET_SYSTEM: Prostaglandin G/H synthase 1 (Rattus norvegicus, UniProt Q63921); note: assay procedure not described here
# Sequence (Q63921 whole entry): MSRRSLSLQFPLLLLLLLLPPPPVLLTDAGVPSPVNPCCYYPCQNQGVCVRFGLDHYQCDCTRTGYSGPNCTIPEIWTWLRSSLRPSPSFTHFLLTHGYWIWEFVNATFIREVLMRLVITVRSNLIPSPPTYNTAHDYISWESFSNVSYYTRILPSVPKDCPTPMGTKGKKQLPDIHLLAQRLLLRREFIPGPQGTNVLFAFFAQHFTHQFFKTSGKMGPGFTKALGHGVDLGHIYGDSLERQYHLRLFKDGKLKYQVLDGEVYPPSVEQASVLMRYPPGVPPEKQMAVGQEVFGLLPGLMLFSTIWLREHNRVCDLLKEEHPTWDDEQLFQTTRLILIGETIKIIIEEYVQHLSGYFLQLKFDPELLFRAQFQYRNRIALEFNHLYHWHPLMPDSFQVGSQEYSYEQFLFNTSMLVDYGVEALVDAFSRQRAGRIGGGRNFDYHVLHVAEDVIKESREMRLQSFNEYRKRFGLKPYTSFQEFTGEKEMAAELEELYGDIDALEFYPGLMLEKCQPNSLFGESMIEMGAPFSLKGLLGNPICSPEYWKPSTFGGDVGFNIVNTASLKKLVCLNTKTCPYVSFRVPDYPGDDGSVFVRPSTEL
# Format: functional

{"COMPOUND": "CC(C)C[C@H](CN)CC(=O)O", "AC50": "> 30 µM"}
{"COMPOUND": "CC(C)=CCOc1ccc(/C=C/C(=O)c2ccc(OCC=C(C)C)cc2OCC(=O)O)cc1", "AC50": "> 30 µM"}
{"COMPOUND": "NS(=O)(=O)c1cc(C2(O)NC(=O)c3ccccc32)ccc1Cl (centres undefined)", "AC50": "> 10 µM"}
{"COMPOUND": "CC[C@@H](CO)NC(=O)[C@@H]1C=C2c3cccc4[nH]cc(c34)C[C@H]2N(C)C1", "AC50": "> 30 µM"}
{"COMPOUND": "CC1(C)O[C@@H]2C[C@H]3[C@@H]4C[C@H](F)C5=CC(=O)C=C[C@]5(C)[C@H]4[C@@H](O)C[C@]3(C)[C@]2(C(=O)CO)O1 [FLUNISOLIDE]", "AC50": "> 30 µM"}
{"COMPOUND": "Cc1cc(CC(=O)O)n(C)c1C(=O)c1ccc(Cl)cc1 [ZOMEPIRAC]", "AC50": "16 µM"}
{"COMPOUND": "COc1ccc(Cc2nccc3cc(OC)c(OC)cc23)cc1OC", "AC50": "> 30 µM"}
{"COMPOUND": "CCN(CC)CCOC(=O)c1ccc(N)cc1Cl", "AC50": "> 30 µM"}
{"COMPOUND": "C#Cc1cccc(Nc2ncnc3cc(OCCOC)c(OCCOC)cc23)c1", "AC50": "> 30 µM"}
